Molecular target: T1, recombinant hAng-2 (C-His, R&D Systems) (human, UniProt O15123 19-496)
T1 construct: Bought protein; also called human Ang-2 protein; C-terminal histidine-tagged human Ang2 (R&D Systems); not shown: C-terminal His tag
T1 sequence: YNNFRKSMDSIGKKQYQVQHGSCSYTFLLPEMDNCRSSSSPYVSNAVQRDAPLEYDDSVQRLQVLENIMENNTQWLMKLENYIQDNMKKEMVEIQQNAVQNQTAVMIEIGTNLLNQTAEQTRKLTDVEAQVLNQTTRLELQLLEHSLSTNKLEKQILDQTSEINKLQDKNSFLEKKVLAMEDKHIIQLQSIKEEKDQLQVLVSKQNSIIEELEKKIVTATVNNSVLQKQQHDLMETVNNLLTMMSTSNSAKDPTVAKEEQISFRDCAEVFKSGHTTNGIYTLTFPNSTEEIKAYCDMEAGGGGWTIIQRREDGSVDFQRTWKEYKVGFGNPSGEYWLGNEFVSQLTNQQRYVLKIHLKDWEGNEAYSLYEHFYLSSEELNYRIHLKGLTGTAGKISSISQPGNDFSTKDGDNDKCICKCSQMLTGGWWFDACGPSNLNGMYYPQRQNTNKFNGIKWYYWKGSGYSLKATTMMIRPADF
Assay: SPR, BIAcore T100; hAng2 (C-His) captured by anti-His antibody on CM5, antibody as analyte
MEASURE_NAME: kon
Reply with the number and its unit after it.

Fill in the blank: the reported kon of h10D6-OPTI-67 (antibody, human IgG1, V domains shown) VH: QVQLQESGPGLVKPSETLSLTCAVSGYSITSDYAWNWIRQPPGKGLEWMGKISYSGKTDYNPSLKSRSTISRDTSKNQFSLKLSSVTAADTAVYYCARGNFEGAMDYWGQGTLVTVSS VL: DIQMTQSPSSLSASVGDRVTITCKASQSVSNDVHWYQQKPGKAPKLLIYYASIPYPGVPSRFSGSGSGTDFTLTISSLQPEDFATYYCQQDYSSPWTFGQGTKLEIK is ____.
2.08e+06 M⁻¹ s⁻¹
